experiment: Drug metabolism in monkey serum assessed as parent compound level at 0.006 g after 48 hrs by TLC analysis; assay type: ADME, cell-free, Macaca mulatta; settings: rhesus monkey, read-out: Drug metabolism
measurementType: remaining at 48 h
Field note: include the unit after the figure.

Query block: Param item = CCCCOC(=O)CC[C@H](NC(=O)c1ccc(N(C)Cc2cnc3nc(N)nc(N)c3n2)cc1)C(=O)OCCCC ; retrieve measured remaining at 48 h.
Result block: 2%

----------
assay: Drug metabolism in monkey serum assessed as parent compound level at 0.006 g after 6 hrs by TLC analysis; format: ADME, cell-free, Macaca mulatta; settings: rhesus monkey, read-out: Drug metabolism
measurementType: remaining at 6 h

Query block: # query: remaining at 6 h of entry CCCCOC(=O)CC[C@H](NC(=O)c1ccc(N(C)Cc2cnc3nc(N)nc(N)c3n2)cc1)C(=O)OCCCC
Result block: < 1%

----------
biological target: Dihydrofolate reductase (Oryctolagus cuniculus); test: Inhibition of rabbit liver dihydrofolate reductase using [3H]-folic acid after 10 mins by scintillation counting
measurementType: ID50 (×10⁻⁸ mol/L)
Unit ×10⁻⁸ mol/L implied. Number only.

[
  {
    "compoundSmiles": "CCCCOC(=O)[C@H](CCC(=O)O)NC(=O)c1ccc(N(C)Cc2cnc3nc(N)nc(N)c3n2)cc1",
    "ID50 / ×10⁻⁸ mol/L": 1.7
  }
]

Next:
Query block: Field request: ID50 | item: CCCCOC(=O)CC[C@H](NC(=O)c1ccc(N(C)Cc2cnc3nc(N)nc(N)c3n2)cc1)C(=O)O
Result block: 1.7

----------
experiment: Drug metabolism in mouse serum assessed as parent compound level at 0.006 g after 24 hrs by TLC analysis; assay type: ADME, cell-free; settings: read-out: Drug metabolism
measurementType: remaining at 24 h (%)
Please reply with the bare figure in % and do not write the unit itself.

Query block: Consider the compound shown here: CCCCOC(=O)CC[C@H](NC(=O)c1ccc(N(C)Cc2cnc3nc(N)nc(N)c3n2)cc1)C(=O)OCCCC What is its recorded remaining at 24 h?
Result block: 89

----------
experiment: Drug metabolism in mouse serum assessed as parent compound level at 0.006 g after 48 hrs by TLC analysis; assay type: ADME, cell-free; settings: read-out: Drug metabolism
measurementType: remaining at 48 h
Remember to put the unit after the number in your answer.

Query block: # remaining at 48 h lookup, item CCCCOC(=O)CC[C@H](NC(=O)c1ccc(N(C)Cc2cnc3nc(N)nc(N)c3n2)cc1)C(=O)OCCCC
Result block: 93%

----------
assay: Drug metabolism in human serum assessed as parent compound level at 0.006 g after 6 hrs by TLC analysis; assay type: ADME, cell-free; conditions: read-out: Drug metabolism
measurementType: remaining at 6 h

Query block: Using the record for CCCCOC(=O)CC[C@H](NC(=O)c1ccc(N(C)Cc2cnc3nc(N)nc(N)c3n2)cc1)C(=O)OCCCC , report its remaining at 6 h.
Result block: < 1%

----------
test: Drug metabolism in monkey serum assessed as parent compound level at 0.006 g after 2 hrs by TLC analysis; format: ADME, cell-free, Macaca mulatta; settings: rhesus monkey, read-out: Drug metabolism
measurementType: remaining at 2 h

Query block: Data request, read-out remaining at 2 h, for CCCCOC(=O)CC[C@H](NC(=O)c1ccc(N(C)Cc2cnc3nc(N)nc(N)c3n2)cc1)C(=O)OCCCC
Result block: < 1%

----------
assay: Drug metabolism in human serum assessed as parent compound level at 0.006 g after 24 hrs by TLC analysis; assay type: ADME, cell-free; settings: read-out: Drug metabolism
measurementType: remaining at 24 h (%)
Write the answer as a number in %, unit excluded.

Query block: Bench note: what remaining at 24 h did CCCCOC(=O)CC[C@H](NC(=O)c1ccc(N(C)Cc2cnc3nc(N)nc(N)c3n2)cc1)C(=O)OCCCC show?
Result block: 1
